- Tested on: ICS
- methodSummary: qHTS profiling for inhibitors of Plasmodium falciparum proliferation (AID 504749); also: nearly all actives have a fitted effect of over 60% in size
- assayConditions: P. falciparum in erythrocytes, SYBR Green DNA, 72 h; series mostly up to 28.7 µM
Records with an inconclusive call do not appear. Activity calls are given as the source filed them. Calls follow the shape of the dose curve; as a rule, active = well fitted inhibition curve with a large enough effect; inconclusive = small, poorly fitted or top-dose-only effect; inactive = flat fitted curve, though single readings scatter.
Respond only with the outcome that fits, drawn from 1 (active), 0 (inactive)

Worked cases, answers included:
INSERT INTO results (compound, targetundertest, group) VALUES
  ('C[C@]12C=CC(=O)N[C@@H]1CC[C@@H]1C2CC[C@]2(C)C(C(=O)Nc3cc(C(F)(F)F)ccc3C(F)(F)F)CC[C@@H]12 (some centres undefined)', 'ICS', 1),
  ('CCOc1ccccc1O[C@@H](c1ccccc1)[C@@H]1CNCCO1', 'ICS', 1),
  ('CN1[C@@H]2CC[C@@H]1CC(OC(=O)[C@H](CO)c1ccccc1)C2 (some centres undefined)', 'ICS', 0),
  ('CC(C)(C)C(=O)OCC(=O)C1CCC2C3CCC4=CC(=O)CCC4(C)C3CCC12C (centres undefined)', 'ICS', 0),
  ('O=c1ccn(C2OC(COP(=O)(O)OC3C(CO)OC(n4ccc(=O)[nH]c4=O)C3O)C(O)C2O)c(=O)[nH]1 (centres undefined)', 'ICS', 0),
  ('CO/N=C(/C(=O)N[C@@H]1C(=O)N2C(C(=O)O)=C(CSc3cnns3)CS[C@H]12)c1csc(N)n1', 'ICS', 0);

Would you mind telling me which call this test gave NCCCCC(N)C(=O)O (centres undefined) ?
0

Any idea what this test logged for C[C@@H](O)[C@@H]1C(=O)N2C(C(=O)O)=C([C@H]3CCCO3)S[C@H]12 ?
0

Recorded test outcome, item CCN(CC)CC(=O)Nc1c(C)cc(C)cc1C
0
